Test system: Wolbachia pipientis
Assay: Anti-Wolbachia Cell-Based Screen
Type: functional
Set-up: scale not given: in the data most compounds retested in dose-response had high values
Details: 5 µM
About 13,000 (27%) of roughly 48,000 compounds showed an effect of 50% or more. Some of the results follow.
So basically: Percent Effect at 30% or higher? That is true (1). Lower than 30%? That is false (0).

| compound | group-label |
| --- | --- |
| Cc1ocnc1CNC(=O)Nc1ccc(N2CCOC(C)C2)cc1 (configuration not stated) | true (1) |
| COc1ncnc2c1CCN(c1cccc(F)c1)CC2 | false (0) |
| CCc1nnc(CN2CCN(c3cccc(OC)c3)C(=O)C2)o1 | true (1) |
| Cc1noc(C)c1CNC(=O)Nc1ccc(N2CCOC(C)C2)cc1 (configuration not stated) | true (1) |
| CC1CN(c2ccc(CNC(=O)NCc3ccoc3)cn2)CCO1 (configuration not stated) | false (0) |
| O=C(N1CCOCC1)N1CCc2ncnc(Oc3cccnc3)c2CC1.O=C(O)C(F)(F)F | false (0) |
| Cc1noc(C)c1CCCNC(=O)Nc1ccc2c(c1)COC2 | false (0) |
| Cc1noc(C)c1C(=O)NCc1ccc(N2CCOC(C)C2)nc1 (configuration not stated) | false (0) |
| CCc1ccc(CN2CCN(c3cccc(OC)c3)C(=O)C2)nc1 | true (1) |
| N#Cc1c(F)cccc1NCCCOCC1CCOCC1 | false (0) |
| Cc1ccsc1CNC(=O)c1ccc(N2CCOC2=O)cc1 | false (0) |
| COc1cccc(N2CCN(Cc3ncc[nH]3)CC2=O)c1 | false (0) |
